Tested on: SK-MEL-5 melanoma
Assay: NCI-60 one-dose screen, 48 h
Conditions: 10 µM unless noted
Compounds without any hit were thinned out: in the full panel of roughly 83,000, 20% have a hit. The source made the active and inactive calls. The calls were made as follows: active = growth percent below 10; inactive = the rest.
Bench note: report the call from active, inactive

GET /call?item= c1ccc2cc(C[n+]3ccn(CCCCCCCn4cc[n+](Cc5ccc6ccccc6c5)c4)c3)ccc2c1 returns the recorded outcome of this test.
active

GET /call?item= Clc1ccccc1[C@@H]1C[C@@H]2Cc3cc(Br)c4ccccc4c3N1O2 returns the recorded outcome of this test.
inactive

Per the records of this test, what outcome belongs to CC(C)[O-].CC(C)[O-].CN(CCN(C)Cc1cc(F)cc(F)c1[O-])Cc1cc(F)cc(F)c1[O-].[Ti+4] ?
active

Hi, do you know how CNc1ccc(CSc2ccc(Cl)cc2)cc1 came out in this test?
inactive

----------
Tested on: SNB-19 CNS
Experiment: NCI-60 one-dose screen, 48 h (100 = growth as untreated, 0 = no growth, -100 = all killed)
Conditions: 10 µM unless noted
Compounds without any hit were thinned out: in the full panel of roughly 83,000, 20% have a hit.
Please use Satisfied for growth under 70% and Not satisfied for everything else, ties included.

Nc1nc(N)c([N+](=O)[O-])c(=O)[nH]1 ... Not satisfied
O=C(O)c1ccc(NC(=O)c2cccc(Nc3ccnc(C(F)(F)F)c3)c2)cc1 ... Not satisfied
CC(C)c1nc(N(C)S(C)(=O)=O)nc(-c2ccc(F)cc2)c1/C=C/[C@@H](O)C[C@@H](O)CC(=O)O ... Not satisfied
CC/C=C\C=C/C(=O)N/C=C/CC1Cc2cccc(O)c2C(=O)O1 (stereo not given) ... Satisfied
O=C(Nc1cccc([N+](=O)[O-])c1)c1cccc(C(=O)Nc2cccc([N+](=O)[O-])c2)c1 ... Satisfied
Clc1ccc([C@@H]2C[C@@H]3Cc4cc(Br)c5ccccc5c4N2O3)c(Cl)c1 ... Not satisfied
CCN1C[C@@H](C)n2c(c(O)c3c(=O)n(Cc4ccc(F)c(Cl)c4)nc(C(=O)NC)c32)C1=O ... Satisfied
C=CCCCCCCCCC(=O)[O][Sn]([CH2]CCC)([CH2]CCC)[CH2]CCC ... Satisfied
CCCCCCOc1ccc(/C=N/NC(N)=S)cc1 ... Not satisfied
COc1ccc(-c2c(N)noc2-c2cc(OC)c3c(c2)OCCO3)cc1 ... Satisfied

In the record for COc1ccc(C2=NN(C(C)=O)C(c3cc(OC)c(OC)c(OC)c3)C2)cc1 (stereo not given) , is growth less than 70%?
Not satisfied

Would you kindly verify if growth of COc1ccc(C(=O)Nc2nc(-c3ccc(Cl)cc3)cs2)cc1 is strictly less than 70%?
Not satisfied

I wonder whether O=C1C(Cl)=C(N=Nc2c(Cl)c(O)c3ccccc3c2O)C(=O)c2ccccc21 has growth below 70%. Can you tell?
Satisfied

Lab log: compare recorded growth with 70%; is it strictly lower for Cc1nn(-c2ccc(Cl)cc2)c2nc3c(nc12)C(=O)c1ccccc1-3 ?
Not satisfied

Determine if Cc1cc(NC(=O)c2ccc(N)cc2)ccc1N=Nc1ccc2c(O)c(N=Nc3ccc(Cl)c(S(=O)(=O)O)c3)c(S(=O)(=O)O)cc2c1 shows growth strictly lower than 70%.
Not satisfied

----------
Measured growth, listed per entry.
Tested on: M14 melanoma
Assay: NCI-60 one-dose screen, 48 h (100 = growth as untreated, 0 = no growth, -100 = all killed)
Settings: 10 µM unless noted
This is part of a sample that, as a whole, favours compounds with a hit. Of some 83,000 tested, about 20% had one in any assay.
Write down the numeric answer in % and omit the unit.

COC(=O)[C@]1(CCSC)N[C@H](c2cn(-c3ccccc3)nc2C)[C@@H]2C(=O)N(c3ccc(C)cc3)C(=O)[C@@H]21 ... 96.6
COc1ccc2c(c1)nc(N)c1c3cc(OC)c(OC)cc3cn21 ... 31.6
Cc1cc(C)n2nc(SCC(=O)Nc3sc4c(c3C(N)=O)CCC4)nc2n1 ... 102
COc1ccc(Nc2nccc(N3CCN(c4c5ccc(Cl)cc5nc5ccc(OC)cc45)CC3)n2)cc1 ... 88.4
c1ccc(-c2nn[nH]n2)c(-c2ccc(CN3CCN(c4nsc5ccccc45)CC3)cc2)c1 ... 108

API: value(readout=growth, system=M14 melanoma) for record Cc1c(C(N)=O)sc2ncn(Cc3ccccc3)c(=O)c12
105

GET /values?readout=growth&system=M14 melanoma&item= Nc1ccc2c3c(cccc13)-c1ccccc1-2
90.2

Return growth measured with M14 melanoma given this molecule: CCN1C[C@@H](C)n2c(c(O)c3c(=O)n(Cc4ccc(F)c(Cl)c4)nc(C(=O)NC)c32)C1=O
30.4

Value wanted: growth (M14 melanoma) of entry CCC[C@H](N[C@@H](C)C(=O)N1[C@H](C(=O)O)C[C@@H]2CCCC[C@@H]21)C(=O)OCC
113

Recall the recorded growth for COc1ccc(COC(C)=O)cc1 with M14 melanoma and state it.
108

Notebook: pull reported growth for M14 melanoma, entry Cc1ccc2c(c1)O/C(=C\c1ccc([N+](=O)[O-])o1)C2=O
55.8

Give the reported growth for COc1cc(/C=C/C(=O)c2c(-c3ccc(Cl)cc3)nc3sc(C)nn23)cc(OC)c1OC (system: M14 melanoma).
75.8

What measured growth is associated with O=[P@@]1(c2ccccc2)O[C@H](COCc2ccccc2)[C@@H](OCc2ccccc2)[C@H](OCc2ccccc2)[C@H]1NCc1ccccc1 on M14 melanoma?
15.2

I'm curious: which growth was measured for CCCCCCCCCCCCCCCCCc1nccn1CCO tested on M14 melanoma?
64.9

Entry source: PubChem BioAssay (NCI)
